Data origin: ChEMBL document CHEMBL1135968

Assay: Area under concentration versus time curve, 0-30 min
Type: ADME
Design: time < 0.5 hr
Settings: 0.5 h
ENDPOINT LABEL: AUC conc (µM·h)
Only the number, expressed in µM·h, is required.

So what does the record say about AUC conc for DIETHYLENETRIAMINEPENTAACETATO AQUO GADOLINIUM (III) ?
104
